- ASSAY TARGET: T1, Bzz1-1, P38822
- T1 sequence (P38822 478-572, looked up): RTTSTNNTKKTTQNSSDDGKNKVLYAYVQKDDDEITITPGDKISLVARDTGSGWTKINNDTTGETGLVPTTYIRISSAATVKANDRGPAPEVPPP
- ASSAY PROCEDURE: SPOT array
- SETTINGS: median of control spots 4446
RECORDED ENDPOINT: SPOT intensity

NGRRRPKFRVQLSGN | 1

1. RKQRSIPLSPIVPES
2. NNFYRPLLRSVLVLL
Qu. Recorded SPOT intensity values differ for 1 and 2 ; which one is higher? Please respond with the label that marks your chosen entry.
Ans. 2
(2: 3, 1: 0)

A. VPKEPAPAPPPEPDM
B. FYNRTAFQLPGDARV
Qu. Recorded SPOT intensity values differ for A and B ; which one is higher? Please respond with the label that marks your chosen entry.
Ans. B
(B: 2, A: 0)
